molecular target: human IL-6 (human, UniProt P05231 30-212); test: SPR (Biacore), purified antibody on Protein A chip, IL-6 flowed, 37 C
Sequence (P05231 30-212 limits assumed): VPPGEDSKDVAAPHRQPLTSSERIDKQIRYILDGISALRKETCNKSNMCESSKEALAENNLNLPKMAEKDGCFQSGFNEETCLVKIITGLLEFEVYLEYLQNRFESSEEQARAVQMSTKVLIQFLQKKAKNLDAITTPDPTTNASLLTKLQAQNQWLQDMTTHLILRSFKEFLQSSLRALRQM
MEASURE: Kd

anti-IL-6 antibody, heavy chain G66D / light chain M32L, M50D, N52S, M88Q (antibody, human IgG1, V domains shown, Human IgG1) VH: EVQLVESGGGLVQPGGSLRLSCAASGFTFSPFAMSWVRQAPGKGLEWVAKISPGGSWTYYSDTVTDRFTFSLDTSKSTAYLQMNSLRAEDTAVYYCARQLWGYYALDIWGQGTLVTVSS VL: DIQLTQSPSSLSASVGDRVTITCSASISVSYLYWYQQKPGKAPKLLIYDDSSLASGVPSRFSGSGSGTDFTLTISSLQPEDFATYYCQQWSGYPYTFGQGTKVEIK = 0.244 nM

Give measured Kd for every item shown.
1. anti-IL-6 antibody, heavy chain T63K, G66D / light chain M32L, M50D, N52S, M88Q (antibody, human IgG1, V domains shown, Human IgG1) VH: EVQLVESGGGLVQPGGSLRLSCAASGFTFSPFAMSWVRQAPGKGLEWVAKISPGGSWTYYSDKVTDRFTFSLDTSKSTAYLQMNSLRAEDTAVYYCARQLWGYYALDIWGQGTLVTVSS VL: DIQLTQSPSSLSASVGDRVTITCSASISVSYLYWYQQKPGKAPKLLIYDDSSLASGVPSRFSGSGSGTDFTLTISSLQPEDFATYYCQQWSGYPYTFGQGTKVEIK
2. anti-IL-6 antibody, heavy chain T63Q, G66D / light chain M32L, M50D, N52S, M88Q (antibody, human IgG1, V domains shown, Human IgG1) VH: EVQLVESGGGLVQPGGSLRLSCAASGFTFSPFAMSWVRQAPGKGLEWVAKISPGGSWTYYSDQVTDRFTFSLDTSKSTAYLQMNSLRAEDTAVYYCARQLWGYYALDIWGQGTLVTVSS VL: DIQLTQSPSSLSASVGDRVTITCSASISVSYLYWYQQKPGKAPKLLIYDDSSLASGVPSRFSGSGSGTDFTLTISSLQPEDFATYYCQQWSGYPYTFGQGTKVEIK
3. anti-IL-6 antibody, heavy chain T63E, G66D / light chain M32L, M50D, N52S, M88Q (antibody, human IgG1, V domains shown, Human IgG1) VH: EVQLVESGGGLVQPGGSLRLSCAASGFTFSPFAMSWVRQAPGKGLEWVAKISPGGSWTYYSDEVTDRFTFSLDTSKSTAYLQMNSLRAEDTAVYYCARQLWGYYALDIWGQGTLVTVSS VL: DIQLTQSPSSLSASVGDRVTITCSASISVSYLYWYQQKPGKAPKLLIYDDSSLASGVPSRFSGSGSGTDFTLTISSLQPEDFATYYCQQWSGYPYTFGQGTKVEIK
4. anti-IL-6 antibody, heavy chain WT / light chain M32L, M50D, N52S, M88Q (antibody, human IgG1, V domains shown, Human IgG1) VH: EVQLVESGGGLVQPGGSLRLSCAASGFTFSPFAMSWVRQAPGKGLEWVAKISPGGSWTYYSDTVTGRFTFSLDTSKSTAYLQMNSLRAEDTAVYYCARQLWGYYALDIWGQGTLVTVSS VL: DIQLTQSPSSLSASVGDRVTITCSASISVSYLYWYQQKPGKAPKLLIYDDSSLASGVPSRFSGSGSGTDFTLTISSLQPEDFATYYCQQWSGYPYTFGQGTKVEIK

*A*
1. 0.252 nM
2. 0.201 nM
3. 0.198 nM
4. 0.286 nM

// data source = patent US20240209076A1
